assay: inhibitors of TNFa-induced NFkB p65 translocation, primary screen, imaging, HUVEC, MLSMR starter and 10KST1 sets (AID 438); conditions: HUVEC TNFa-induced p65 nuclear translocation; at 2 µM, active compounds read high, 0% TNFa-plus-vehicle, 100% no-TNFa wells;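 note: compound added about 3h40 before a 20 min TNFalpha stimulation; signal is the nuclear over cytoplasmic p65 intensity ratio per well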

{"columns": ["SMILES_NOTATION", "UNIT_INFO", "inhibition"],
 "data": [
  ["O=C(Cn1nc(-c2ccc(Cl)cc2)ccc1=O)NCCCN1CCN(Cc2ccccc2)CC1", "%", 10.6],
  ["CCOC(=O)C1CCN(Cc2ccc(C(=O)OC)cc2)CC1", "%", -4.3],
  ["COc1cc(NC(=O)c2cc(OC)c(OC)c(OC)c2)c(OC)cc1NC(=O)CN1CCCCC1", "%", -11.1],
  ["CCOC(=O)CSc1nnc(CNC(=O)c2ccc(OC)c(OC)c2)n1C", "%", -8.2],
  ["CCOC(=O)c1c(NC(=O)Cn2c(C)nc3ccccc32)sc2c1CCC2", "%", -6.2],
  ["FC(F)(F)C(F)(F)C(F)(F)c1nnc2ccc(N3CCOCC3)nn12", "%", 7.9]
]}
